Measured I50 (inhibitor concentration for 50% inhibition in the competitive ELISA) values are reported for all entries that follow.
Target: MAb 4082-25-4
Test: Indirect competitive ELISA (assay A), inhibition of MAb 4082-25-4 binding / cross-reactivity
Parameters: species or system BALB/c mouse
Conditions: MAb 4082-25-4

Below, each entry is followed by its recorded I50 (inhibitor concentration for 50% inhibition in the competitive ELISA) result.
MOLECULE: COC(=O)C(C)N(C(=O)c1ccco1)c1c(C)cccc1C (stereo not drawn)
RESULT: > 1000 ng/mL
--
MOLECULE: COCC(=O)N(c1c(C)cccc1CO)C(C)C(=O)OC (stereo not drawn)
RESULT: > 1000 ng/mL

Here is another molecule to look at.
Asked: Which I50 (inhibitor concentration for 50% inhibition in the competitive ELISA) value is on record for COC(=O)C(C)Nc1c(C)cccc1C (stereo not drawn) ?
Given back: > 1000 ng/mL

Entry source: patent US5576188A
